Values compiled from patent US11926645B2.

- assay.name: in vivo
- test.conditions: male, Sprague-Dawley, rat, po, 5 mg/kg, Reference Compound A AUCinf.
measured.attribute: AUC(0-inf) (µM·h)
Numbers only, in µM·h.

Enquiry: Answer with reported AUC(0-inf) of N#C[C@@]1(c2ccc3c(N)ncnn23)O[C@H](CO)[C@@H](O)[C@H]1O [Reference Compound A]
Return: 3.07

###

- assay.name: in vivo
- test.conditions: female, po, 20 mg/kg
measured.attribute: AUC(0-inf) (µM·h)
One number for each entry, in µM·h.

Enquiry: Answer with reported AUC(0-inf) of N#C[C@@]1(c2ccc3c(N)ncnn23)O[C@H](CO)[C@@H](O)[C@H]1O [Reference Compound A]
Return: 70.9

###

- assay.name: in vivo
- test.conditions: male, cynomolgus monkey, po, 5 mg/kg
measured.attribute: Cmax (nM)
Give bare numbers, in nM.

Enquiry: Answer with reported Cmax of N#C[C@@]1(c2ccc3c(N)ncnn23)O[C@H](CO)[C@@H](O)[C@H]1O [Reference Compound A]
Return: 536

###

- assay.name: in vivo
- test.conditions: male, cynomolgus monkey, po, 5 mg/kg
measured.attribute: AUC(0-inf) (µM·h)
Give bare numbers, in µM·h.

Enquiry: Answer with reported AUC(0-inf) of N#C[C@@]1(c2ccc3c(N)ncnn23)O[C@H](CO)[C@@H](O)[C@H]1O [Reference Compound A]
Return: 1.86

###

So I've got a bunch of compounds here, and I need their pEC50 values.
- Tested on: RSV-Fluc (Respiratory Syncytial virus strain A2 containing the firefly luciferase reporter)
- assay.name: microbe, parasite or virus in culture
- Format: cell-based
- test.conditions: human respiratory syncytial virus, 72 h, NHBE cells, three days
Answers are plain numbers, as −log10 of the molar value.

Observe how each entry below is paired with its result.
CC(C)C(=O)OC[C@H]1O[C@@](C#N)(c2ccc3c(N)ncnn23)[C@H](O)[C@@H]1O
6.23
CC(C)(C)C(=O)OC[C@H]1O[C@@](C#N)(c2ccc3c(N)ncnn23)[C@H](O)[C@@H]1O
6.24
CCC(=O)OC[C@H]1O[C@@](C#N)(c2ccc3c(N)ncnn23)[C@H](OC(=O)CC)[C@@H]1OC(=O)CC
6.08
CCCC(=O)OC[C@H]1O[C@@](C#N)(c2ccc3c(N)ncnn23)[C@H](O)[C@@H]1O
6.22
N#C[C@@]1(c2ccc3c(N)ncnn23)O[C@H](COC(=O)C2CCC2)[C@@H](O)[C@H]1O
5.96
CC(C)C(=O)O[C@H]1[C@@H](OC(=O)C(C)C)[C@](C#N)(c2ccc3c(N)ncnn23)O[C@@H]1COC(=O)C(C)(C)N
6.52

Kindly consider the entry below.
Enquiry: Answer with reported pEC50 of N#C[C@@]1(c2ccc3c(N)ncnn23)O[C@H](COC(=O)Cc2ccccc2)[C@@H](O)[C@H]1O
Return: 6.10
